Value source: patent US20250027068

# Enzyme Activity Endpoint Assay: IgG per entry
# assayed_system: pooled human IgG (human IgG1, 2, 3 and 4)
measured_quantity: Enzyme Activity Endpoint Assay: IgG (ng/µL)

>>> endpoint_result("PRT-464 (protein) MVTSVWTKGVTPPANFTQGEDVFHAPYVANQGWYDITKAFDGGDDLLCGAATAGNMLHWWFDQNKDQIERYLKEHPEKQKINFNGEQMFDVKEAIDTKDSQTNSELFNYFKEKAFPYLSTKHLGVFPDHVLDMFINGYRLSLTNHGPTPVKEGSKDPRGGIFDAVFTRGDQSKLLTSRHDLKNKTLKEISDLIKQELTEGKALGLSHTYANVRINHVINLWGADFDSEGNLKAIYVTDSDSNASIGMKKYFVGVNSAGKVAISAKEIKEDNIGAQVLGLFTLSTGQDIWNQTNLEHHHHHH")
0
>>> endpoint_result("PRT-271 (protein) MVTSVWTKGVTPPTDFIYGEDVLHAPYKAGQGWYDITKLFNGKDDLLCGAATAGNMLHWWFDQNKEQIENYLKKHPEKQKINFNGEQMFDVKEAIDTKDSQLDSKLFDYFKEKAFPYLSTKHLGVFPDHVIDMFINGYRLSLTNHGPTPVKRGSKDPRGGIFDAVFTRGDQSKLLTNRHDLKNKTLKEISDLIKQELTEGKALGISHTYANVRINHVINLWGADFDAEGNLEAIYVTDSDSNPSIGMKKYFVGVNSSGKVAISAKEIEEDNIGAQVLGLFTLSTGQDIWNQTN")
0
